Test system: Vero E6 infected with SARS-CoV-2
assay-summary: SARS-CoV-2 infection rate relative to infected DMSO; higher = more infection, active = 60 or less
experimental-context: 24 h

| molecule | assayed-system | output-unit | SARS-CoV-2 infection rate |
| --- | --- | --- | --- |
| Nc1ccn([C@H]2CO[C@@H](CO)S2)c(=O)n1 [apricitabine] (10 µM) | Vero E6 infected with SARS-CoV-2 | % | 108 |
| O=C1CN2Cc3c(ccc(Cl)c3Cl)N=C2N1 [anagrelide] (10 µM) | Vero E6 infected with SARS-CoV-2 | % | 112 |
| Nc1ccc(S(N)(=O)=O)cc1 [sulfanilamide] (10 µM) | Vero E6 infected with SARS-CoV-2 | % | 103 |
| N=C(N)c1ccc(OCCCCCOc2ccc(C(=N)N)cc2)cc1 [pentamidine] (10 µM) | Vero E6 infected with SARS-CoV-2 | % | 109 |
| NC(=O)c1ccc(F)c2c1C[C@@H](N(C1CCC1)C1CCC1)CO2 [robalzotan] (10 µM) | Vero E6 infected with SARS-CoV-2 | % | 100 |
| CC[C@H](C)[C@H](N)C1=N[C@H](C(=O)N[C@@H](CC(C)C)C(=O)N[C@H](CCC(=O)O)C(=O)N[C@H](C(=O)N[C@H]2CCCCNC(=O)[C@H](CC(N)=O)NC(=O)[C@@H](CC(=O)O)NC(=O)[C@H](Cc3cnc[nH]3)NC(=O)[C@@H](Cc3ccccc3)NC(=O)[C@H]([C@@H](C)CC)NC(=O)[C@@H](CCCN)NC2=O)[C@@H](C)CC)CS1 [bacitracin] (10 µM) | Vero E6 infected with SARS-CoV-2 | % | 112 |
| Nc1ccncc1N [amifampridine] (10 µM) | Vero E6 infected with SARS-CoV-2 | % | 92 |
